Data provenance: paper PMC9168489

testedTarget: HTRA1 (human) (UniProt Q92743)
protocolNotes: ITC
Where no end group is shown, it is not given here.
experimentalEndpoint: pKd
The scale used: pKd is minus the common logarithm of the concentration in molar units.

Asked: Which pKd reading was recorded for the binder EWTDDDLVESL (not fully specified) [CCNH peptide, carboxyl terminus of cyclin H] ?
Given back: 4.40
